B1: ZNF449 (parent)
chain: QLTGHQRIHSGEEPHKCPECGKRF

Variants of: B1
Run description: protein stability index of a GFP-peptide fusion (GPS, HEK-293T) (PSI 1-6); higher = more stable;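 also: lentivirally expressed fusions sorted by FACS into six bins by GFP to DsRed ratio, PSI derived from sequencing read proportions per bin multiplied by bin number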
Test parameters: c terminus: a fixed tail appended
Property: protein stability index

> print(dat)
                 construct.sequence                 property  recorded.measurement
 1   QLWGHQRIHSGEEPHKCPECGKRF [T3W]  protein stability index                  2.77
 2   QLKGHQRIHSGEEPHKCPECGKRF [T3K]  protein stability index                  3.99
 3  QLTGHQRIHSGEEPHKQPECGKRF [C17Q]  protein stability index                  4.38
 4   RLTGHQRIHSGEEPHKCPECGKRF [Q1R]  protein stability index                  3.87
 5   QLTGHIRIHSGEEPHKCPECGKRF [Q6I]  protein stability index                     3
 6  QLTGHQRIHSGEEPHKCPCCGKRF [E19C]  protein stability index                     2
 7  QLTGHQRIHSGEEAHKCPECGKRF [P14A]  protein stability index                  4.33
 8  QLTGHQRIHSGMEPHKCPECGKRF [E12M]  protein stability index                  3.73
 9   QLTGHQRPHSGEEPHKCPECGKRF [I8P]  protein stability index                  3.71
10  QLTGHQRIHSGEEPHKCPTCGKRF [E19T]  protein stability index                  4.03
11  QLTGHQRIHSGEEPHKCPECGKWF [R23W]  protein stability index                  3.92
12   QHTGHQRIHSGEEPHKCPECGKRF [L2H]  protein stability index                  4.58
13  QLTGHQRIHSGTEPHKCPECGKRF [E12T]  protein stability index                  3.43
14   QLTGHRRIHSGEEPHKCPECGKRF [Q6R]  protein stability index                  2.88
15  QLTGHQRIHSGEEPHKCPECKKRF [G21K]  protein stability index                  4.41
16   QITGHQRIHSGEEPHKCPECGKRF [L2I]  protein stability index                   3.1
17   QLTGHQGIHSGEEPHKCPECGKRF [R7G]  protein stability index                  4.56
18  QLTGHQRIHSGEEPHKCPEYGKRF [C20Y]  protein stability index                  4.67
19   QLLGHQRIHSGEEPHKCPECGKRF [T3L]  protein stability index                   3.6
20  QLTGHQRIHSGEEPHKFPECGKRF [C17F]  protein stability index                   4.6
21  QLTGHQRIHSGEEPHKCPECMKRF [G21M]  protein stability index                  4.53
22  QLTGHQRIHSGEEPHKCPMCGKRF [E19M]  protein stability index                  4.05
23  QLTGHQRIHSGEEPHKCHECGKRF [P18H]  protein stability index                  3.61
24   QLTGTQRIHSGEEPHKCPECGKRF [H5T]  protein stability index                  4.08
25   QPTGHQRIHSGEEPHKCPECGKRF [L2P]  protein stability index                  4.89
26   QLTGHQRIDSGEEPHKCPECGKRF [H9D]  protein stability index                   4.9
27  QLTGHQRIHSGEEPHKCPLCGKRF [E19L]  protein stability index                  3.16
28  QLTGHQRIHTGEEPHKCPECGKRF [S10T]  protein stability index                  4.35
29   ALTGHQRIHSGEEPHKCPECGKRF [Q1A]  protein stability index                   4.5
30  QLTGHQRIHSGEEPHTCPECGKRF [K16T]  protein stability index                  4.43
31  QLTGHQRIHSGEEPHKCPECGKPF [R23P]  protein stability index                  4.28
32  QLTGHQRIHSGEEPHKCPECIKRF [G21I]  protein stability index                  4.34
33  QLTGHQRIHCGEEPHKCPECGKRF [S10C]  protein stability index                  4.11
34   QLTGHQRIESGEEPHKCPECGKRF [H9E]  protein stability index                  4.61
35   QLTGQQRIHSGEEPHKCPECGKRF [H5Q]  protein stability index                  3.65
36   QLTGKQRIHSGEEPHKCPECGKRF [H5K]  protein stability index                  4.46
37   QLTGHQEIHSGEEPHKCPECGKRF [R7E]  protein stability index                  4.08
38  QLTGHQRIHSGEEPHKCPECGLRF [K22L]  protein stability index                  4.29
39  QLTGHQRIHSGVEPHKCPECGKRF [E12V]  protein stability index                  4.17
40  QLTGHQRIHSGEEPHKTPECGKRF [C17T]  protein stability index                  3.98
41   QLTGHNRIHSGEEPHKCPECGKRF [Q6N]  protein stability index                  3.77
42   QLTGHQRNHSGEEPHKCPECGKRF [I8N]  protein stability index                  4.24
43  QLTGHQRIHSGEEPHMCPECGKRF [K16M]  protein stability index                  3.94
44  QLTGHQRIHSGEEPHKCPNCGKRF [E19N]  protein stability index                  4.01
45   QLTGHQRILSGEEPHKCPECGKRF [H9L]  protein stability index                  3.98
46   QLTGGQRIHSGEEPHKCPECGKRF [H5G]  protein stability index                  4.45
47  QLTGHQRIHSGEEPHKCPELGKRF [C20L]  protein stability index                  4.05
48  QLTGHQRIHSGEEPHKCPEHGKRF [C20H]  protein stability index                  4.46
49   QLTGHKRIHSGEEPHKCPECGKRF [Q6K]  protein stability index                  3.43
50  QLTGHQRIHSGEEPHKCPECGSRF [K22S]  protein stability index                  4.71
51  QLTGHQRIHSGEEPQKCPECGKRF [H15Q]  protein stability index                  4.31
52  QLTGHQRIHSGEEPHPCPECGKRF [K16P]  protein stability index                  4.23
53  QLTGHQRIHSGEEPHKCPEKGKRF [C20K]  protein stability index                  4.99
54  QLTGHQRIHHGEEPHKCPECGKRF [S10H]  protein stability index                  4.24
55  QLTGHQRIHSGEMPHKCPECGKRF [E13M]  protein stability index                  3.57
56   QLTGHDRIHSGEEPHKCPECGKRF [Q6D]  protein stability index                  4.77
57   QLTGHQRDHSGEEPHKCPECGKRF [I8D]  protein stability index                  4.71
58  QLTGHQRIHSGEEPHKCPECGYRF [K22Y]  protein stability index                   4.3
59  QLTGHQRIHSGEWPHKCPECGKRF [E13W]  protein stability index                  3.57
60   ILTGHQRIHSGEEPHKCPECGKRF [Q1I]  protein stability index                   3.3
61   QLTGHQHIHSGEEPHKCPECGKRF [R7H]  protein stability index                  4.78
62  QLTGHQRIHDGEEPHKCPECGKRF [S10D]  protein stability index                  4.33
63  QLTGHQRIHSGEEPHKCPECGKCF [R23C]  protein stability index                  3.93
64  QLTGHQRIHSGEEPHKCSECGKRF [P18S]  protein stability index                  4.46
65   QLTGHERIHSGEEPHKCPECGKRF [Q6E]  protein stability index                  3.77
66  QLTGHQRIHSAEEPHKCPECGKRF [G11A]  protein stability index                  4.64
67  QLTGHQRIHSGEEPHKCPETGKRF [C20T]  protein stability index                  4.87
68  QLTGHQRIHSGEEPSKCPECGKRF [H15S]  protein stability index                  4.06
69  QLTGHQRIHSGEEPHKCPECGTRF [K22T]  protein stability index                  4.21
70  QLTGHQRIHSGEEDHKCPECGKRF [P14D]  protein stability index                  4.84
71  QLTGHQRIHSGEEPEKCPECGKRF [H15E]  protein stability index                  4.28
72   QATGHQRIHSGEEPHKCPECGKRF [L2A]  protein stability index                  4.57
73  QLTGHQRIHSGEEPHKCPECGPRF [K22P]  protein stability index                  4.22
74  QLTGHQRIHSGEEPHKCPECGRRF [K22R]  protein stability index                     4
75  QLTGHQRIHSGEEPHKCPHCGKRF [E19H]  protein stability index                  4.12
76  QLTGHQRIHSGEEPHKCPECGKRM [F24M]  protein stability index                  4.13
77   QLTGMQRIHSGEEPHKCPECGKRF [H5M]  protein stability index                  3.67
78  QLTGHQRIHSGEEPHKCPYCGKRF [E19Y]  protein stability index                  3.95
79   QLTGHQRISSGEEPHKCPECGKRF [H9S]  protein stability index                  4.12
80   QLTCHQRIHSGEEPHKCPECGKRF [G4C]  protein stability index                  4.29
81  QLTGHQRIHSGEEPHKCPFCGKRF [E19F]  protein stability index                  3.69
82   QLTGYQRIHSGEEPHKCPECGKRF [H5Y]  protein stability index                  2.92
83  QLTGHQRIHSGEEPHKCPEFGKRF [C20F]  protein stability index                  4.39
84   QLTGHQRIRSGEEPHKCPECGKRF [H9R]  protein stability index                  3.54
85   QLTIHQRIHSGEEPHKCPECGKRF [G4I]  protein stability index                  3.41
86  QLTGHQRIHSGEEPHKCDECGKRF [P18D]  protein stability index                  5.02
87   QLTGHQRIGSGEEPHKCPECGKRF [H9G]  protein stability index                  3.52
88  QLTGHQRIHSGEEPHKCPEWGKRF [C20W]  protein stability index                  4.34
89  QLTGHQRIHSGHEPHKCPECGKRF [E12H]  protein stability index                  4.05
90  QLTGHQRIHSDEEPHKCPECGKRF [G11D]  protein stability index                   4.5
91   QLTGHQRIWSGEEPHKCPECGKRF [H9W]  protein stability index                  3.34
